Give measured IC50 for each item. Keep answers brief.
The reply should contain only the number, in nM.

Lookup: IC50 / acetylcholinesterase (Electrophorus electricus) / COc1ccc2c3c1O[C@H]1C[C@@H](O)C=C[C@@]31CC[N+](CCCCCCn1cccc1)=C2
170

# value lookup — system acetylcholinesterase (Electrophorus electricus), readout IC50, item COc1ccc2c3c1O[C@H]1C[C@@H](O)C=C[C@@]31CC[N+](C)=C2 [Example 1, galanthaminium methanesulfonate]
80

Source of measurements: patent US5958903A
